A compilation of IC50 values for TGF-beta receptor type-1 (Homo sapiens, UniProt P36897) from the published literature.
reportedMetric: IC50 (nM)

compound	targetUnderTest	IC50 [nM]
NCC1CC(n2cc(-c3cccc(C(F)(F)F)c3)c3c(N)ncnc32)C1 (centres unmarked)	TGF-beta receptor type-1 (Homo sapiens, UniProt P36897)	2700

a = CNC(=O)c1cnccc1Nc1nc(-c2cc(Cl)ccc2F)nc2nc(NCCN(C)C)ccc12
b = CNC(=O)c1cnc2ccc(-c3ncccc3-c3cccc(C)n3)cn12
Between a and b , which one shows the smaller IC50 number? Pick one and reply with its label. b
(b: 76 nM, a: 6040 nM)
